Target: T1, His-tagged CEACAM1 (human, UniProt P13688 35-428)
T1 construct: 45 kDa SPR analyte; also called CEACAM1-HIS; CEACAM1 analyte
T1 sequence: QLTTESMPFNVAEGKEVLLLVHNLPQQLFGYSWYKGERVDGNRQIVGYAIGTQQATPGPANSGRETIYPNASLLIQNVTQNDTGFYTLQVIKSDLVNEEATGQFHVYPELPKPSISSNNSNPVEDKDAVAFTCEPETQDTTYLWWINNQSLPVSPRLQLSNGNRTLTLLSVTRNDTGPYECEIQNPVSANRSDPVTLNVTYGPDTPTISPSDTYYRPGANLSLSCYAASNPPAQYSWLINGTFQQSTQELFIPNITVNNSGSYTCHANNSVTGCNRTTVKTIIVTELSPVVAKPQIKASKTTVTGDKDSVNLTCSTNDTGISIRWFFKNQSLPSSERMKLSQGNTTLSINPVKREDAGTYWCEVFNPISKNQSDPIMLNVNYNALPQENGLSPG
Experiment: SPR single-cycle, supernatant IgG captured
MEASURED ENDPOINT: relative KD to parent
// response body must contain only the number

[[record]]
binder = "CP08A08/Vκ8 S29A (antibody, IgG4, V domains shown, IgG4 (S241P), kappa) VH: EVQLLESGGGLVQPGGSLRLSCAASGFIFTNHGMSWVRQAPGKGLEWVATISSGGTYTYYPDSVKGRFTISRDNSKNTLYLQMNSLKAEDTAMYYCARHDFDYDAAWFAYWGQGTLVTVSS VL: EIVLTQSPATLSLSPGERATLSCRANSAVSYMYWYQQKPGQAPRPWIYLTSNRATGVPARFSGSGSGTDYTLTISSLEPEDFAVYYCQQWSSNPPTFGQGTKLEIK"
data_value = 0.4

[[record]]
binder = "CP09E05/Vκ8 S29A (antibody, IgG4, V domains shown, IgG4 (S241P), kappa) VH: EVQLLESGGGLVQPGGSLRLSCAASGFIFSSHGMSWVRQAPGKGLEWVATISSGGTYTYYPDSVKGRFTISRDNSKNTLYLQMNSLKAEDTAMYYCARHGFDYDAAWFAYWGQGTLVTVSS VL: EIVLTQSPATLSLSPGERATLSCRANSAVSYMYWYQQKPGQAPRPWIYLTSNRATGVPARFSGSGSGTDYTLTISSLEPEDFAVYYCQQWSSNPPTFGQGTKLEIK"
data_value = 1.4


From here, focus on the item given below.
Form: binder = CP08G10/Vκ8 S29A (antibody, IgG4, V domains shown, IgG4 (S241P), kappa) VH: EVQLLESGGGLVQPGGSLRLSCAASGFIFSSHGMSWVRQAPGKGLEWVATISSGGTYTYYPDSVKGRFTISRDNSKNTLYLQMNSLKAEDTAMYYCARHDFDYFPAWFAFWGQGTLVTVSS VL: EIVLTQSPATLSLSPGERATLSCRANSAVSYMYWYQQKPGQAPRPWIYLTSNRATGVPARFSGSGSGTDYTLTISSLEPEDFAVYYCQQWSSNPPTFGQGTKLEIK ; relative KD to parent = 0.9
